measurement.target: µOR (Homo sapiens)
Sequence (P35372 whole entry, the tested form may be a part): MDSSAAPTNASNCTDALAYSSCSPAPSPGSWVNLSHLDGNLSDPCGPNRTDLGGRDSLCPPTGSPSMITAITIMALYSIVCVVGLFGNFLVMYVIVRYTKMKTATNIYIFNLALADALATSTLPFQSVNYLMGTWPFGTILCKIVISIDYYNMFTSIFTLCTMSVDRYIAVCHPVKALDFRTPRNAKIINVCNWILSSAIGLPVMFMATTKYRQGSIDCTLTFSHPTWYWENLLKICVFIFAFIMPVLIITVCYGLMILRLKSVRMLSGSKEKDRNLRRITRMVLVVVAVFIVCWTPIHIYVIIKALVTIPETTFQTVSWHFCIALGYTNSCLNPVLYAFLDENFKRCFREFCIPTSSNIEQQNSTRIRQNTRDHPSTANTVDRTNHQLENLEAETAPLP
protocol.description: β-arrestin-2 recruitment, enzyme-fragment complementation assay in HEK-293 cells
Format: cell-based
Parameters: expressed in transfected cells; host or cells: HEK-293 cells stably expressing EA-tagged β-arrestin-2, transiently transfected with µOR-PK1
stated.conditions: mean of 3-8 tests; 90 min incubation; CBA = could not be analyzed (no dose-response curve)
Source text: Functionally selective drugs, which are biased towards Gi protein activation over β-arrestin signaling at the µOR are indicated to show an improved side effect profile. […] In the above table, the numbers indicate mean EC50 values in nM and Emax values relative to the full effect of reference agonist DAMGO [=100%], respectively and are derived from 3-9 individual experiments for G-protein signaling and 3-8 tests for arrestin recruitment. ND = not determined.
outcome.measure: β-arrestin recruitment EC50

[[record]]
smiles_data = "C/C(=C\\C(=O)NC[C@H](Cc1ccc(O)cc1)N(C)C)c1ccccc1"
outcome_measure = "β-arrestin recruitment EC50"
observed = "CBA"

[[record]]
smiles_data = "CN(C)[C@H](CNC(=O)/C=C/c1ccsc1)Cc1ccc(O)cc1"
outcome_measure = "β-arrestin recruitment EC50"
observed = "CBA"

[[record]]
smiles_data = "CN(C)[C@H](CNC(=O)/C=C/c1cccc2ccccc12)Cc1ccc(O)cc1"
outcome_measure = "β-arrestin recruitment EC50"
observed = "CBA"

